# EXPERIMENTAL_TARGET: T1, His-tagged human TFR1 (transferrin receptor 1) protein (human, UniProt P02786 89-760)
# T1 construct: Bought protein; The order of the tag and the receptor part is not known; also called hTFR1-His; ACROBiosystems Cat #: CD1-H5243; not shown: His tag
# T1 sequence (P02786 89-760 limits assumed): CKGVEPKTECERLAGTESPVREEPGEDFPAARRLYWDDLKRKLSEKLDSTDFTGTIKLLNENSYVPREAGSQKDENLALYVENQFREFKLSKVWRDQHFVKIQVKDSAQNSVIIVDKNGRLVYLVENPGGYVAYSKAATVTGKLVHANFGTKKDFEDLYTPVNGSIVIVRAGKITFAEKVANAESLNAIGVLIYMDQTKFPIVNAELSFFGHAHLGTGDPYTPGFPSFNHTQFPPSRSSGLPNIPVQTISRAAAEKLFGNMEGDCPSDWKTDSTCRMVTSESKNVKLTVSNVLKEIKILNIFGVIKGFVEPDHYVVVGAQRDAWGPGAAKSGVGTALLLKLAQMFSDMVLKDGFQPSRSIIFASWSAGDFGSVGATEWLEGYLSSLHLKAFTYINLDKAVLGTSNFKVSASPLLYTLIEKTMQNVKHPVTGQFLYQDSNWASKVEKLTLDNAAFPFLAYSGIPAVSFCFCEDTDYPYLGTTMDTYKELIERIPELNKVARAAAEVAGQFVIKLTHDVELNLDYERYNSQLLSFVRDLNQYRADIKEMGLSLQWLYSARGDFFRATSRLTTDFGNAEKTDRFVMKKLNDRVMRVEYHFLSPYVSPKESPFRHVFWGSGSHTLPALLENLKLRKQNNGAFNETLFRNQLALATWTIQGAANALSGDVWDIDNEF
# PROTOCOL_TEXT: SPR, Biacore 8K; antibody captured on Protein A chip, hTFR1-His as analyte; 1:1 Langmuir fit
# reported Kd; entries follow
Numeric answer plus unit only.

Examples from the recorded data:
>  <BINDER>
24G5 (antibody, human IgG1, V domains shown, Heavy-chain antibody without light chain; also called anti-TFR1 antibody 24G5) VH: QLQLQESGGGLVQPGGSLRLTCAASGFTFSSFAMSWVRQAPGKGLERVSEISDSGGNTYYADSVKGRFTISRDNSKNTLYLQMNSLRAEDTAVYYCAKDDSSGWAFNIWDQGTVVTVSS

>  <Kd>
2.05 nM

$$$$
>  <BINDER>
24A1 (antibody, human IgG1, V domains shown, Heavy-chain antibody without light chain; also called anti-TFR1 antibody 24A1) VH: EVQLVESGGGLVQPGGSLRLTCAASGFTFSSYAMSWVRQAPGKGLERVSEISGSGSSTNYADSVKGRFTISRDNSKNTLYLQMNSLRAEDTAVYYCAKDDSSGWAFNIWDQGTVVTVSS

>  <Kd>
2.93 nM

$$$$
>  <BINDER>
23B8 (antibody, V domains shown, Heavy-chain antibody without light chain; also called anti-TFR1 antibody 23B8) VH: QVTLKESGGGLVKPGGSLRLSCAASGFPFSNAWMNWVRQAPGKGLEWVGHIKSKTDGGTTDYAAPVKGRFTISRDDSKNMVFLQMNSLKTEDTAVYYCTTDRAYCGGDCSHYYYHDLDVWGQGTTVTVSS

>  <Kd>
8.73 nM

$$$$

Using the record for 24C9 (antibody, human IgG1, V domains shown, Heavy-chain antibody without light chain; also called anti-TFR1 antibody 24C9) VH: EVQLVQSGGGVVQPGRSLRLSCAASGFTLSSYGMYWVRQAPGKGREWVAFIRFDESKKYYADSVKGRFTISRDNSKNTLYLQMNSLRAEDTAVYYCARDGEGGYCTNGVCHGLDVWGQGTTVTVSS , report its Kd.
14.3 nM
